- tested system: Endothelial lipase (EL) (Homo sapiens (Human), UniProt Q9Y5X9)
- Sequence (Q9Y5X9 21-500): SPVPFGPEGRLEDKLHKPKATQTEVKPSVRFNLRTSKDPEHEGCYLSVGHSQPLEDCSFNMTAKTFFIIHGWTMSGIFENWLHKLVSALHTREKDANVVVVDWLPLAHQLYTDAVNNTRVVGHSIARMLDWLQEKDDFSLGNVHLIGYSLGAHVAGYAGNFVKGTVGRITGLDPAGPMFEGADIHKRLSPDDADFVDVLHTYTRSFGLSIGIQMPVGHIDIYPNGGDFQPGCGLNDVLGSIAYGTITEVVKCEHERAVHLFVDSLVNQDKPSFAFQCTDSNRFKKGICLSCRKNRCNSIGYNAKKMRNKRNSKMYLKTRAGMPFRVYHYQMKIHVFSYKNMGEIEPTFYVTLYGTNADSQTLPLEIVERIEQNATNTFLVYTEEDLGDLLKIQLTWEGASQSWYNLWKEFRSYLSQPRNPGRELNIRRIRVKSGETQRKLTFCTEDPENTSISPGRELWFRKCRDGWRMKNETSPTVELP
- measurement notes: EL assay: endothelial lipase activity with fluorescent substrate A10070 in DMPG vesicles
- Type: biochemical
- condition description: EL from conditioned media of HT-1080 cells; 30 min incubation with compound at 37° C.; A10070/DMPG vesicles
recorded endpoint: IC50 (nM)

Here's what some known entries look like.
[[record]]
compound = "CCNC(=O)CNC(=O)C(c1nc2ccc(-c3ccc(F)nc3)cc2s1)S(=O)(=O)CCOC (centres unmarked)"
recorded_endpoint = "IC50"
measured_number = 109

[[record]]
compound = "CC(C)(C)OC(=O)c1ccc2nc(C(C(=O)NCCS(N)(=O)=O)S(=O)(=O)CCC(F)(F)F)sc2c1 (centres unmarked)"
recorded_endpoint = "IC50"
measured_number = 65


1. CS(=O)(=O)C(C(=O)NCCS(N)(=O)=O)c1nc2cc(C(=O)O)ccc2s1 (centres unmarked)
2. CS(=O)(=O)CCNC(=O)C(c1nc2ccc(-c3ccnc(F)c3)cc2s1)S(C)(=O)=O (centres unmarked)
Ask: Dear colleague, could you let me know whether 1 or 2 has the lower recorded IC50? Thanks. Identify your pick by its label.
Reply: 1

###

- tested system: Endothelial lipase (EL) (Homo sapiens (Human), UniProt Q9Y5X9)
- measurement notes: EL assay: endothelial lipase activity with fluorescent substrate A10070 in DMPG vesicles
- Type: biochemical
recorded endpoint: IC50 (µM)

Some compounds with known IC50 results, for comparison:
[[record]]
compound = "COCCN(C)C(=O)c1ccc(-c2ccc3nc(C(C(=O)NCCS(N)(=O)=O)S(=O)(=O)CCC(F)(F)F)sc3c2)cc1 (stereo not shown)"
recorded_endpoint = "IC50"
unit_symbol = "µM"
measured_number = 0.0121

[[record]]
compound = "Cc1nnc(CNC(=O)C(c2nc3ccc(-c4ccc(C(=O)N5CC(F)(F)C5)cc4)cc3s2)S(C)(=O)=O)o1 (stereo not shown)"
recorded_endpoint = "IC50"
unit_symbol = "µM"
measured_number = 0.032

[[record]]
compound = "COCCS(=O)(=O)C(C(=O)NCCS(N)(=O)=O)c1nc2ccc(-c3cncnc3)cc2s1 (stereo not shown)"
recorded_endpoint = "IC50"
unit_symbol = "µM"
measured_number = 0.0147


I. Cc1nnc(-c2ccc(-c3ccc4nc(C(C(=O)NCCS(N)(=O)=O)S(C)(=O)=O)sc4c3)cc2)o1 (stereo not shown)
II. COCC(C)(C)NC(=O)c1ccc(-c2ccc3nc(C(C(=O)NCCS(N)(=O)=O)S(=O)(=O)Cc4ccc(OC(F)(F)F)cc4)sc3c2)cc1 (stereo not shown)
Ask: // pick min by IC50: I , II API: response body contains the label of the selected item.
Reply: I

###

- tested system: Endothelial lipase (EL) (Homo sapiens (Human), UniProt Q9Y5X9)
- measurement notes: EL assay: endothelial lipase activity with fluorescent substrate A10070 in DMPG vesicles
- Type: biochemical
pIC50: −log10 of the molar value.
pIC50 overview

Example cases with answers are listed next.
[[record]]
compound = "CC(=O)Nc1ccc(-c2ccc3nc(C(C(=O)NCCS(N)(=O)=O)S(=O)(=O)CCC(F)(F)F)sc3c2)cc1 (stereo not shown) [Example B55]"
tested_system = "Endothelial lipase (EL) (Homo sapiens (Human), UniProt Q9Y5X9)"
recorded_endpoint = "pIC50"
result = "> 8.00"

[[record]]
compound = "NS(=O)(=O)CCNC(=O)C(c1nc2ccc(-c3ccccc3)cc2s1)S(=O)(=O)CC1CC1 (stereo not shown)"
tested_system = "Endothelial lipase (EL) (Homo sapiens (Human), UniProt Q9Y5X9)"
recorded_endpoint = "pIC50"
result = "> 8.00"

[[record]]
compound = "COCCS(=O)(=O)C(C(=O)NCc1nnc(C)o1)c1nc2cc(F)c(-c3ccc(C(=O)N(C)C)c(F)c3)cc2s1 (stereo not shown)"
tested_system = "Endothelial lipase (EL) (Homo sapiens (Human), UniProt Q9Y5X9)"
recorded_endpoint = "pIC50"
result = 6.92


--- query ---
Ask: Which pIC50 is listed for CN1CCOc2cc(-c3ccc4nc(C(C(=O)NCCS(N)(=O)=O)S(C)(=O)=O)sc4c3)ccc21 (stereo not shown) ?
Reply: > 8.00

Entry source: patent US8987314B2
